Reference for the values: the supplement of paper PMC9112550

# shrunken log2 fold change annotations
- System: Escherichia coli TOP10
- testDescription: shrunken log2 fold change of peptide-encoding DNA abundance (4.5 h post-induction vs induction); higher = less antimicrobial activity (less host growth inhibition)
- settings: time post-induction: 4.5 h; library: site-saturation at positions 5, 18, 19, 20
Response field accepts a number only; no unit should be typed.

// query Can you share its shrunken log2 fold change? I mean this sequence: RRIRERPPRLPRPRPRPAQIPRP
// result -0.0282

// query For RRIRKRPPRLPRPRPRPTTHPRP then?
// result 0.495

// query For RRIRKRPPRLPRPRPRPEHIPRP then?
// result 0.0147

// query For RRIRCRPPRLPRPRPRPLKGPRP then?
// result -0.204

// query For RRIRPRPPRLPRPRPRPIEVPRP then?
// result -0.113

// query For RRIRYRPPRLPRPRPRPKCSPRP then?
// result -0.433

// query For RRIRDRPPRLPRPRPRPASHPRP then?
// result 0.0378

// query For RRIRRRPPRLPRPRPRPLSCPRP then?
// result -0.146

// query For RRIRSRPPRLPRPRPRPKRVPRP then?
// result 0.0219

// query For RRIRQRPPRLPRPRPRPECAPRP then?
// result 0.407

// query For RRIRTRPPRLPRPRPRPSILPRP then?
// result -0.781

// query For RRIRLRPPRLPRPRPRPEGDPRP then?
// result 0.0662

// query For RRIRERPPRLPRPRPRPNKKPRP then?
// result -0.187

// query For RRIRIRPPRLPRPRPRPEPKPRP then?
// result 0.475

// query For RRIRWRPPRLPRPRPRPYQNPRP then?
// result -0.847

---

- System: Escherichia coli TOP10;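 note: peptides expressed intracellularly from a pBAD plasmid library in pooled LB shake-flask culture, induced with 0.3% L-arabinose, DNA abundance read by NGS, three biological replicates, DESeq2 with apeglm shrinkage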
- testDescription: shrunken log2 fold change of peptide-encoding DNA abundance (4.5 h post-induction vs induction); higher = less antimicrobial activity (less host growth inhibition)
- settings: time post-induction: 4.5 h; library: site-saturation at positions 5, 18, 19, 20
experimentalReadout: shrunken log2 fold change
Response field accepts a number only; no unit should be typed.

Use these answered entries as a reference point.
RRIRGRPPRLPRPRPRPYRMPRP | -0.245
RRIRSRPPRLPRPRPRPIFIPRP | -0.329
RRIRCRPPRLPRPRPRPPRMPRP | 0.671
RRIRVRPPRLPRPRPRPNYRPRP | 0.0968
RRIRMRPPRLPRPRPRPFNQPRP | -0.0903

// query Can you share its shrunken log2 fold change? I mean this sequence: RRIRTRPPRLPRPRPRPPSIPRP
// result 0.114

// query For RRIRIRPPRLPRPRPRPCHDPRP then?
// result -0.223

// query For RRIRVRPPRLPRPRPRPQMGPRP then?
// result 0.00696

// query For RRIRTRPPRLPRPRPRPHVSPRP then?
// result -0.287

// query For RRIRARPPRLPRPRPRPMTQPRP then?
// result 0.249

// query For RRIRLRPPRLPRPRPRPLSEPRP then?
// result 0.0386

// query For RRIRDRPPRLPRPRPRPESAPRP then?
// result 0.345

// query For RRIRYRPPRLPRPRPRPKYQPRP then?
// result -0.213

// query For RRIRIRPPRLPRPRPRPCSCPRP then?
// result -0.446

// query For RRIRYRPPRLPRPRPRPDRKPRP then?
// result -0.157
